// inhibition at 0.1 µM lookup, one value per entry
Target: human recombinant serotonin (5-Hydroxytryptamine) 5-HT2C receptor (Homo sapiens, UniProt P28335)
Construct: expressed in transfected cells; host or cells: Chinese hamster ovary (CHO-K1) cells
Sequence (P28335 33-458): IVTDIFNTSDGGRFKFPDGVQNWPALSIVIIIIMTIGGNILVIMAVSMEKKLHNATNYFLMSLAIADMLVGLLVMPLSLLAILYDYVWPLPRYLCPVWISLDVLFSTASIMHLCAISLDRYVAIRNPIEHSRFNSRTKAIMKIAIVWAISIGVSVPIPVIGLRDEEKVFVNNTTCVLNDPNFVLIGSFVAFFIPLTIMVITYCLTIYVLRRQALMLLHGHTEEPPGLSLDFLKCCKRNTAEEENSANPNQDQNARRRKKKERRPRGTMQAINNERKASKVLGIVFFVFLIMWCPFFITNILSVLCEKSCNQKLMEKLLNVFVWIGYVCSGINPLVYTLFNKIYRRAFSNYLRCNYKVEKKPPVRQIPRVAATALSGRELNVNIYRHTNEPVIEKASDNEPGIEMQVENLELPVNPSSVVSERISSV
Experiment: Serotonin 5-HT2C radioligand binding assay ([3H]Mesulergine)
Conditions: compound at 0.1 μM; 1 nM [3H]Mesulergine; CHO-K1 cells; read-out: Percent Inhibition of ligand binding, Serotonin (0.1 μM) 5-HT2C
ATTRIBUTE MEASURED: inhibition at 0.1 µM (%)

>>> df
                                   compound    attribute_measured  quantitative_result
0  Cc1ccc2c(c1)c1c(n2CC(C)(O)c2ccncc2)CCN(C2CC2)C1 (stereo not shown) [Compound 1-30]  inhibition at 0.1 µM                    4
1  Cc1ccc2c(c1)c1c(n2CC(C)(O)c2ccncc2)CCN(CC(F)(F)F)C1 (stereo not shown) [Compound 1-29]  inhibition at 0.1 µM                    3
2  Cc1ccc2c(c1)c1c(n2CC(C)(C)c2ccncc2)CCN(C)C1 [Compound 1-49]  inhibition at 0.1 µM                   96
3  Cc1ccc2c(c1)c1c(n2CCc2ccc(C(F)(F)F)nc2)CC(C)N(C)C1 (stereo not shown) [Compound 1-45]  inhibition at 0.1 µM                   50

---

Target: human recombinant serotonin (5-Hydroxytryptamine) 5-HT2A receptor (Homo sapiens, UniProt P28223)
Construct: expressed in transfected cells; host or cells: Chinese hamster ovary (CHO-K1) cells
Sequence (P28223 whole entry): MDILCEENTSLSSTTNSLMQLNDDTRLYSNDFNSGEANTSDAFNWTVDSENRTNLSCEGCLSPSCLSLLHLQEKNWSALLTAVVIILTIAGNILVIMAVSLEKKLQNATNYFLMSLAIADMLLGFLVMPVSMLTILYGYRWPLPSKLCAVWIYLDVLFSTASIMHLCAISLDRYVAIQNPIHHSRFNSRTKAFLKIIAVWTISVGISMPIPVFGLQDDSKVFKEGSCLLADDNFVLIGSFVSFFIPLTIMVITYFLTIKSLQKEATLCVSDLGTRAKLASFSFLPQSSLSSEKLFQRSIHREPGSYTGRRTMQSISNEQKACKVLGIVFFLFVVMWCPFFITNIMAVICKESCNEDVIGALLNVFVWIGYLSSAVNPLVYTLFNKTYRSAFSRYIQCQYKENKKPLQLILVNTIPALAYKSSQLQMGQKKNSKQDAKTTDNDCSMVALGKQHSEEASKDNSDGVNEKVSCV
Test: Serotonin 5-HT2A radioligand binding assay ([3H]Ketanserin)
Conditions: compound at 0.1 μM; 0.5 nM [3H]Ketanserin; CHO-K1 cells; read-out: Percent Inhibition of ligand binding, Serotonin (0.1 μM) 5-HT2A
inhibition at 0.1 µM vs 50%: at or above is 1 (yes), below is 0 (no).

In [3]: df
Out[3]:
                                    compound  assigned_label
 0  CC[C@@](O)(Cn1c2c(c3cc(C)ccc31)CN(C)CC2)c1ccc(F)cc1 [Compound 1-66]         1 (yes)
 1  Cc1ccc2c(c1)c1c(n2CC(O)(c2ccncc2)C(C)C)CCN(C)C1 (stereo not drawn) [Compound 1-22]         1 (yes)
 2  CC[C@](O)(Cn1c2c(c3cc(C)ccc31)CN(C)CC2)c1ccc(F)cc1 [Compound 1-60]         1 (yes)
 3  Cc1ccc2c(c1)c1c(n2CC(C)(C)c2ccncc2)CCN(C)C1 [Compound 1-49]         1 (yes)
 4  CN1CCc2c(c3cc(Cl)ccc3n2CC(C)(O)c2ccncn2)C1 (stereo not drawn) [Compound 1-26]          0 (no)
 5  Cc1ccc2c(c1)c1c(n2CCc2ccc(C)nc2)CC(C)N(C)C1 (stereo not drawn) [Compound 1-44]          0 (no)
 6  CCCC[C@@](O)(Cn1c2c(c3cc(Cl)ccc31)CN(C)CC2)c1ccc(F)cc1 [Compound 1-67]          0 (no)
 7  COc1cccc2c3c(n(CC(C)(O)c4ccncc4)c12)CCN(C)C3 (stereo not drawn) [Compound 1-31]          0 (no)
 8  COc1ccc([C@](C)(O)Cn2c3c(c4cc(C)ccc42)CN(C)CC3)cc1 [Compound 1-20]         1 (yes)
 9  Cc1ccc2c(c1)c1c(n2CCc2ccc(C(F)(F)F)nc2)C(C)CN(C)C1 (stereo not drawn) [Compound 1-51]         1 (yes)
10  Cc1ccc2c(c1)c1c(n2CC(C)(O)c2ccncc2)CC(C)N(C)C1 (stereo not drawn) [Compound 1-33]          0 (no)
11  CN1CCc2c(c3cc(Cl)ccc3n2CC(C)(O)c2cnccn2)C1 (stereo not drawn) [Compound 1-27]          0 (no)
12  Cc1ccc(CCn2c3c(c4cc(Cl)ccc42)CN(C)C(C)C3)cn1 (stereo not drawn) [Compound 1-48]          0 (no)
13  Cc1ccc2c(c1)c1c(n2CC(C)c2ccc(C)nc2)CC(C)N(C)C1 (stereo not drawn) [Compound 1-47]          0 (no)
14  Cc1ccc2c(c1)c1c(n2CC(O)(c2ccc(F)cc2)C2CCCCC2)CCN(C)C1 (stereo not drawn) [Compound 1-1]         1 (yes)
15  CCC(O)(Cn1c2c(c3cc(Cl)ccc31)CN(C)CC2)c1ccncc1 (stereo not drawn) [Compound 1-23]         1 (yes)
16  Cc1ccc2c(c1)c1c(n2CC(C)c2ccncc2)CCN(C)C1 (stereo not drawn) [Compound 1-46]         1 (yes)

---

Molecular target: human recombinant adrenergic α2A receptor (Homo sapiens, UniProt P08913)
Construct: expressed in transfected cells; host or cells: insect Sf9 cells
Sequence (P08913 whole entry): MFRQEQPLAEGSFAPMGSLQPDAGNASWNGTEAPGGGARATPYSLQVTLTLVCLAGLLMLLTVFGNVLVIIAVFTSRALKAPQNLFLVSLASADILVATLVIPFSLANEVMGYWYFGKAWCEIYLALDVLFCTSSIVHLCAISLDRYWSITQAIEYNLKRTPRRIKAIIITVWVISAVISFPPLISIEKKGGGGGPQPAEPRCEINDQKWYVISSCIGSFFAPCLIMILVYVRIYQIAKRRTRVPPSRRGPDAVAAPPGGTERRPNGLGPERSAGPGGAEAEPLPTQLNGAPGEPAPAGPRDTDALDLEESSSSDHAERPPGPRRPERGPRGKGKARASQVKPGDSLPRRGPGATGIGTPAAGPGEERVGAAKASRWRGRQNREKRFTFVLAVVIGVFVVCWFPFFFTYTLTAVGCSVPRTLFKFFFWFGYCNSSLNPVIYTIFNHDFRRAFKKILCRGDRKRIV
Test: Adrenergic α2A radioligand binding assay ([3H]MK-912)
Settings: compound at 0.1 μM; 1 nM [3H]MK-912; insect Sf9 cells; read-out: Percent Inhibition of ligand binding, Adrenergic (0.1 μM) a2A
// inhibition at 0.1 µM lookup, one value per entry
ATTRIBUTE MEASURED: inhibition at 0.1 µM (%)

>>> df
                                    compound    attribute_measured  quantitative_result
 0  CC[C@@](O)(Cn1c2c(c3cc(C)ccc31)CN(C)CC2)c1ccncc1  inhibition at 0.1 µM                   10
 1  CN1CCc2c(c3cc(Cl)c(Cl)cc3n2CC(C)(O)c2ccncc2)C1 (centres unmarked)  inhibition at 0.1 µM                   64
 2  CC[C@](O)(Cn1c2c(c3cc(C)ccc31)CN(C)CC2)c1ccc(F)cc1  inhibition at 0.1 µM                    3
 3  CC[C@](O)(Cn1c2c(c3cc(C)ccc31)CN(C)CC2)c1ccncc1  inhibition at 0.1 µM                   12
 4  Cc1ccc2c(c1)c1c(n2CCc2ccc(C)nc2)CCN(CC(F)(F)F)C1  inhibition at 0.1 µM                    6
 5  Cc1ccc2c(c1)c1c(n2CC(C)(O)c2ccc(O)cc2)CCN(C)C1 (centres unmarked)  inhibition at 0.1 µM                   32
 6  CN1CCc2c(c3cc(Cl)ccc3n2CC(O)c2ccncc2)C1 (centres unmarked)  inhibition at 0.1 µM                   41
 7  CCCC[C@](O)(Cn1c2c(c3cc(Cl)ccc31)CN(C)CC2)c1ccc(F)cc1  inhibition at 0.1 µM                   -7
 8  COc1ccc([C@](C)(O)Cn2c3c(c4cc(C)ccc42)CN(C)CC3)cc1  inhibition at 0.1 µM                   57
 9  CC[C@@](O)(Cn1c2c(c3cc(C)ccc31)CN(C)CC2)c1ccc(F)cc1  inhibition at 0.1 µM                   29
10  Cc1ccc2c(c1)c1c(n2CC(O)c2ccncc2)CCN(C)C1 (centres unmarked)  inhibition at 0.1 µM                   37

---

Molecular target: rat adrenergic α1A receptor (Rattus norvegicus)
Construct: from tissue; host or cells: Wistar Rat submaxillary glands
Sequence (P43140 1-466): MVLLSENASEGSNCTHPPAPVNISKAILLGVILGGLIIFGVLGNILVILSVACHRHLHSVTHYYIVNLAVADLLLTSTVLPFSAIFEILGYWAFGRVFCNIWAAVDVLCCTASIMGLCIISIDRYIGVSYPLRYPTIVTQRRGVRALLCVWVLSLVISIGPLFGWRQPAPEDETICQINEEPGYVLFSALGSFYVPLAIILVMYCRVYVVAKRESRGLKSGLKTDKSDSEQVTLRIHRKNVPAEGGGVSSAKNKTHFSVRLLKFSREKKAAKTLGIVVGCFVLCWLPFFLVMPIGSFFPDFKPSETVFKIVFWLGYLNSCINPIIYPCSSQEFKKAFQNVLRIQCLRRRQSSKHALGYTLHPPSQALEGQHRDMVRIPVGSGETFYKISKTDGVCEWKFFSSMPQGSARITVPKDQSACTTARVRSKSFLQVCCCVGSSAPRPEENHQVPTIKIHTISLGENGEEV
Assay: Adrenergic α1A radioligand binding assay ([3H]Prozosin)
Conditions: compound at 0.1 μM; 0.25 nM [3H]Prozosin; Wistar Rat submaxillary glands; read-out: Percent Inhibition of ligand binding, Adrenergic (0.1 μM) a1A
Procedure: To evaluate in radioligand binding assays the activity of compounds of the invention, rat adrenergic α1A receptor obtained from Wistar Rat submaxillary glands (Michel, A. D. et al., Br. J. Pharmacol. 98:883, 1989) in a modified Tris-HCl buffer (50 mM Tris-HCl buffer, pH 7.4, 0.5 mM EDTA) is used. […] Receptor proteins are filtered and washed, the filters are then counted to determine [^3H]Prozosin specifically bound. […]
inhibition at 0.1 µM vs 10%: at or above is TRUE, below is FALSE.

>>> print(df.to_string())
                                   compound  assigned_label
0  CN1CCc2c(c3cccc(Cl)c3n2CC(C)(O)c2ccncc2)C1 (stereo not drawn)           FALSE
1  CCCC[C@](O)(Cn1c2c(c3cc(Cl)ccc31)CN(C)CC2)c1ccc(F)cc1           FALSE
2  Cc1ccc2c(c1)c1c(n2CC(C)c2ccncc2)CCN(C)C1 (stereo not drawn)            TRUE
3  Cc1ccc2c(c1)c1c(n2CC(O)c2ccncc2)CCN(C)C1 (stereo not drawn)           FALSE
4  CN1CCc2c(c3cc(Cl)ccc3n2CC(O)c2ccncc2)C1 (stereo not drawn)            TRUE
5  CC[C@](O)(Cn1c2c(c3cc(C)ccc31)CN(C)CC2)c1ccncc1           FALSE
6  CCCC[C@@](O)(Cn1c2c(c3cc(Cl)ccc31)CN(C)CC2)c1ccc(F)cc1           FALSE
7  COc1ccc([C@](C)(O)Cn2c3c(c4cc(C)ccc42)CN(C)CC3)cc1            TRUE
8  Cc1ccc2c(c1)c1c(n2CC(C)(O)c2ccc(O)cc2)CCN(C)C1 (stereo not drawn)            TRUE
